Every entry's value here was drawn from paper PMC7138916.

TARGET_OR_SYSTEM: human P-gp (MDR1) (Homo sapiens)
Sequence (P08183 whole entry): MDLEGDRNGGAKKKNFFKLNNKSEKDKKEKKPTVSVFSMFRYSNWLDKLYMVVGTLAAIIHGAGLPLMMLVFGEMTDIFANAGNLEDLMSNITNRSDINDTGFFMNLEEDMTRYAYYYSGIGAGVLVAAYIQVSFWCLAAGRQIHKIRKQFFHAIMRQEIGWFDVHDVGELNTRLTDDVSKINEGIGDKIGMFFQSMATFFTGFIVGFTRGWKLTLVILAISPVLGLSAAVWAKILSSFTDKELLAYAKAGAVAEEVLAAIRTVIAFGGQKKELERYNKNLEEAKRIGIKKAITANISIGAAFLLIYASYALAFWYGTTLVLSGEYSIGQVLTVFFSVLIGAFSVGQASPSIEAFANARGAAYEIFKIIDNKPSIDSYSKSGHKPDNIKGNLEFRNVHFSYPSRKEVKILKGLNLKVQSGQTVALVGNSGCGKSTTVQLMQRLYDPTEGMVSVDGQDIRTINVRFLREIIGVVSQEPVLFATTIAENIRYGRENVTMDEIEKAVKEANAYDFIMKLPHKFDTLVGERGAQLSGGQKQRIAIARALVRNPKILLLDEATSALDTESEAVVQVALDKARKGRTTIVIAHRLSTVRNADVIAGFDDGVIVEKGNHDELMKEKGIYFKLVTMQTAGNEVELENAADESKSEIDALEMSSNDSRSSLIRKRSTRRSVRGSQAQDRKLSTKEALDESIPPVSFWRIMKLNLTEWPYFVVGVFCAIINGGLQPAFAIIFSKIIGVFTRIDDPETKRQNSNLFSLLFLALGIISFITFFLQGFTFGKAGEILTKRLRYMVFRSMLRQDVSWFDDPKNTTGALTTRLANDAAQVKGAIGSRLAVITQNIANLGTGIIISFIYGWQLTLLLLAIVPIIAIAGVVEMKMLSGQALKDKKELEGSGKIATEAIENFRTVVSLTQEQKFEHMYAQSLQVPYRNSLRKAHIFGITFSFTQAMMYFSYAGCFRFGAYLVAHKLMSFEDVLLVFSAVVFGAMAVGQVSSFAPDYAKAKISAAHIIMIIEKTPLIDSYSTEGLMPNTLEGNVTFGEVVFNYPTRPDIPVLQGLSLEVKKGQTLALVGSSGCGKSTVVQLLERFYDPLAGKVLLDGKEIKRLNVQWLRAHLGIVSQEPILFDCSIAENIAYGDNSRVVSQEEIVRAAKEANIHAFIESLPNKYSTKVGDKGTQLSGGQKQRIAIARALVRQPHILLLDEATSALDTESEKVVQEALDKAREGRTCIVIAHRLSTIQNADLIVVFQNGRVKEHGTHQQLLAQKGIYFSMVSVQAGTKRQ
ASSAY_TEXT: Bidirectional permeability and efflux ratio in MDR1‐MDCK cells
Type: in vitro ADME
REPORTED_CONDITIONS: human, MDCK-MDR1
MEASUREMENT_TYPE: Papp A→B at 2 h, 1 μmol/L (×10⁻⁶ cm/s)

The examples below pair each entry with its known result.
> print(dat)
                                   compound                  target.or.system           measurement.type  endpoint.value
1  CC(C)NCC(O)COc1cccc2ccccc12 (stereo not drawn)  human P-gp (MDR1) (Homo sapiens)  Papp A→B at 2 h, 1 μmol/L            18.9
2  Nc1nc2[nH]cc(CCc3ccc(C(=O)N[C@@H](CCC(=O)O)C(=O)O)cc3)c2c(=O)[nH]1  human P-gp (MDR1) (Homo sapiens)  Papp A→B at 2 h, 1 μmol/L           0.709
3              CN/C(=N/CCSCc1nc[nH]c1C)NC#N  human P-gp (MDR1) (Homo sapiens)  Papp A→B at 2 h, 1 μmol/L            1.91
4  NC(=O)N1c2ccccc2C=Cc2ccccc21 [Carbamazepine, carbamazepine]  human P-gp (MDR1) (Homo sapiens)  Papp A→B at 2 h, 1 μmol/L            34.3
5  CN(C)CCCC1(c2ccc(F)cc2)OCc2cc(C#N)ccc21 (stereo not drawn)  human P-gp (MDR1) (Homo sapiens)  Papp A→B at 2 h, 1 μmol/L            13.8

a. CC(=O)Nc1ccc(O)cc1
b. CNS(=O)(=O)Cc1ccc2[nH]cc(CCN(C)C)c2c1
c. Cc1cc(=O)n(-c2ccccc2)n1C [Antipyrine]
d. COc1ccc([C@@H]2Sc3ccccc3N(CCN(C)C)C(=O)[C@@H]2OC(C)=O)cc1
Rank the items in ascending order with respect to Papp A→B at 2 h, 1 μmol/L. Labels, requested order.
b, d, a, c
